Biological target: T1, VEGFR-3-Fc (UniProt P35916 25-328)
T1 construct: domain: first three Ig domains; conditioned supernatant of 293T cells; also called VEGFR-3-Fc fusion protein; not shown: Fc fragment of the pIg vector
T1 sequence (looked up): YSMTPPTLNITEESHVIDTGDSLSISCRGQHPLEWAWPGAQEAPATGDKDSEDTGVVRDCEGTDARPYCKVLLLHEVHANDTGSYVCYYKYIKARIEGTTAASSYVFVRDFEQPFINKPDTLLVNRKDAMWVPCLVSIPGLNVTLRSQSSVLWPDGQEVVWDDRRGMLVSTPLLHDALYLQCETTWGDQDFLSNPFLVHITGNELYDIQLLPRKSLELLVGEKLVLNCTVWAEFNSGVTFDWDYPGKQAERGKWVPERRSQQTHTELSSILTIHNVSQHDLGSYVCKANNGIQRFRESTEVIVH
Experiment: receptor-Fc IP
ASSAY_METRIC: binding result

[[record]]
binder = "62-8 (ligand) GQNHHEVVKFMDVYQRSYCHPREVCIDVGKEFGVATNTFFKPPCVSVYRCGGCCNSEGLQCMNTSTSYLSKTLFEIKPHQGQHIGEMSFANHTSCRCMSKLD"
assay_metric = "binding result"
result = "no binding"

[[record]]
binder = "74-13 (ligand) GQNHHEVVKSIDNEWRKTQCMPREVCIDVGKEFGVATNTFFKPSCVPLMRCGGCCNDEGLECVPTEESNITMQIMRITVPLSQGPKPVTISFANHTSCRCMSKLD"
assay_metric = "binding result"
result = "no binding"

